The measurements presented in this section are drawn from patent US20120270250A1.

System: MEST T579B (Homo sapiens, UniProt Q5EB52)
Construct: T579B=amino acids 2-335 and T580B=amino acids 11-335; made in house; host or cells: Sf9 insect cells (baculovirus, pVL1392); crude total membranes
Sequence (Q5EB52 2-335): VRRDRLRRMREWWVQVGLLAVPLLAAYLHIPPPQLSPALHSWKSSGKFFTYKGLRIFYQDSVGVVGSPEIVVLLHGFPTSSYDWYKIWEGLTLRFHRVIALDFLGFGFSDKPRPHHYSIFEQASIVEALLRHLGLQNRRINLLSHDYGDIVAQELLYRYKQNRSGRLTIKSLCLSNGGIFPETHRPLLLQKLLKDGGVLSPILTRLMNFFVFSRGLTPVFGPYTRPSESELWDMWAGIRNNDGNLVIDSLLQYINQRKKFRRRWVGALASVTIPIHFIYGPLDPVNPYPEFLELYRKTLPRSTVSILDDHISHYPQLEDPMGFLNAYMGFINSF
Test: Glycerol 3-phosphate acyl transferase activity, MEST T579B-recombinant Sf9 crude membranes
Type: biochemical
Details: partial inhibition of glycerol 3-phosphate acyl transferase activity
Quantity measured: IC50

What value of IC50 on MEST T579B (Homo sapiens, UniProt Q5EB52) does O=C(O)CCCCCCCCCCCNC(=O)NC12CC3CC(CC(C3)C1)C2 have? ~200 µM
